Examples of compounds with documented Emax follow.
biological target: human H3R (Homo sapiens (Human)); test: GTPγS functional assay, membranes from HEK cells expressing the human H3R; assay type: biochemical; conditions: 5 min; [35S]GTPγS bound as percentage of basal; read-out: Human Maximum (%)
Sequence (Q9Y5N1 whole entry): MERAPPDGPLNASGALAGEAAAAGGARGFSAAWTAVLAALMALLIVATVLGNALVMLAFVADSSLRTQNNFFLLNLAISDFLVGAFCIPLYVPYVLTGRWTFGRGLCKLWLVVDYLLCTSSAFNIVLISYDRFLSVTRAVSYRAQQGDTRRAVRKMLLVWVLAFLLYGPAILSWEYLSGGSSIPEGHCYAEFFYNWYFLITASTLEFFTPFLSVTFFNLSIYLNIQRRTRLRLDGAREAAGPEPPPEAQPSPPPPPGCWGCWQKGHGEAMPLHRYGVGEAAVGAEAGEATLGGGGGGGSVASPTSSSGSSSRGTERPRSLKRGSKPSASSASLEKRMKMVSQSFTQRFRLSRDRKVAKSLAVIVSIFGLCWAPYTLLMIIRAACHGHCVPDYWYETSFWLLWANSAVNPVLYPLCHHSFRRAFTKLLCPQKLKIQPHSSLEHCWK
Counter-ions that a name gives are not always drawn.
Quick reminder: number only, in %, skip the unit.

Worked examples, 3 compounds total:
Compound	Quantitative Result
NCCCNc1ccnc(N)n1 [Example 6, dihydrochloride]	162
Cl.Cl.Nc1nccc(N2CCC(N)CC2)n1 [Example 20, dihydrochloride]	122
Nc1nccc(N2CCC3(CC2)CNC3)n1 [Example 23, trihydrochloride]	147

Item CC(C)(C)OC(=O)N1CCC(CNc2ccnc(N)n2)CC1 has what recorded Emax? 117

Which value of Emax has been reported for Nc1nccc(NC2CCN(Cc3ccccc3)CC2)n1 [Example 12, 2,2,2-trifluoroacetate] in the records? 139

Param item = CN1CCN(c2ccnc(N)n2)CC1 ; retrieve measured Emax. 127

Form field: reported Emax of Nc1nccc(N2CCCN(Cc3ccccc3)CCC2)n1 120

Give its Emax value. Item: Nc1nccc(N2CCNCC2)n1 [Example 25, dihydrochloride] 150

Reported Emax, compound CC(C)(CN)CNc1ccnc(N)n1 : ____ 111

Recorded Emax of Cl.Cl.Nc1nccc(N[C@@H]2CCNC2)n1 [Example 18, dihydrochloride] , please. 179

----------
target: rat H3R (Rattus norvegicus (Rat)); assay: GTPγS functional assay, membranes from C6 cells expressing the rat H3R; conditions: GTPγS agonist potency
Structures can show the parent of a compound that is named as a salt.
Rule: EC50 below 700 nM gives 1.0. Equal to or above 700 nM gives 0.0.

Known results for compounds:
Compound	Assigned Category
Nc1nccc(N2C[C@H]3CN(Cc4ccccc4)C[C@H]3C2)n1	1.0
Nc1nccc(NC2CNC2)n1 [Example 22, trihydrochloride]	1.0
CN(C)CCCN(C)c1ccnc(N)n1.O=C(O)C(O)C(O)C(=O)O	0.0
NCCNc1ccnc(N)n1.O=C(O)C(O)C(O)C(=O)O	1.0

Now turn to the next compound.
hey, is EC50 for Nc1nccc(N2CCNCC2)n1 [Example 25, dihydrochloride] lower than 700 nM or not? 1.0

----------
# Rat Maximum (%) values compiled below
molecular target: rat histamine H3 receptor (Rattus norvegicus (Rat), UniProt Q9QYN8); experiment: FLIPR functional assay (Ca2+, HEK-293 cells coexpressing Gαqi5), rat H3 receptor; type: cell-based; conditions: FLIPR; percentage of the response to 1 μM RAMH
Sequence (Q9QYN8 whole entry): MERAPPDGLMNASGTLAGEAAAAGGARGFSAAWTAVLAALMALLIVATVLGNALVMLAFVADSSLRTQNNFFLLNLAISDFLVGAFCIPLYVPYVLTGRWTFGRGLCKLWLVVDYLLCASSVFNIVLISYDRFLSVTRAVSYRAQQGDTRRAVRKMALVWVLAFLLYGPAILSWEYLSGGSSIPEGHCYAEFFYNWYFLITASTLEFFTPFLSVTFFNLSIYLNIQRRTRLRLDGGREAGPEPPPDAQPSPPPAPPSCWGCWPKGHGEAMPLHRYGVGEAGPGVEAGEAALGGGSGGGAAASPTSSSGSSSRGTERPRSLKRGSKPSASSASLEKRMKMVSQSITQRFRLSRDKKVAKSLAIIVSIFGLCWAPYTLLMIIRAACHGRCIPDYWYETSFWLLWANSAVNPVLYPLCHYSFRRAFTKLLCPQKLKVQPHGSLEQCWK
Numeric only. Scale: %

The examples below pair each entry with its known result.
Smiles Input	Rat Maximum (%)
Cl.Cl.Nc1nccc(N2CCC(N)CC2)n1	83.0
Cl.Cl.Nc1nccc(N[C@@H]2CCNC2)n1	78.6
Nc1nccc(N[C@H]2CC[C@H](N)CC2)n1	74.0
NCCNc1ccnc(N)n1.O=C(O)C(O)C(O)C(=O)O	100.0

For the next question, use this compound.
May I ask what Rat Maximum (%) has been recorded for CC(C)(C)OC(=O)N1CC[C@@H](Nc2ccnc(N)n2)C1 ? 75.8

----------
biological target: human histamine H3 receptor (Homo sapiens (Human)); test: FLIPR functional assay (Ca2+, HEK-293 cells coexpressing Gαqi5), human H3 receptor; settings: FLIPR agonist potency
Value Kind: EC50 (nM)
The figure you give is taken to be in nM; do not add the unit.

Query: EC50; subject: Nc1nccc(N[C@H]2CC[C@H](N)CC2)n1 17700

For the compound NCCNc1ccnc(N)n1.O=C(O)C(O)C(O)C(=O)O , what EC50 is on record? 124

Quick one: EC50 of CN(C)CCNc1ccnc(N)n1 [Example 2, 2,2,2-trifluoroacetate] ? 85.1

Reported EC50 for Nc1nccc(N2C[C@H]3CN(Cc4ccccc4)C[C@H]3C2)n1 : what is it? 2110

Look at this compound and give its reported EC50. Cl.Cl.Nc1nccc(N2CCC(N)CC2)n1 [Example 20, dihydrochloride] 254

----------
target: rat H3R (Rattus norvegicus (Rat), UniProt Q9QYN8); test: GTPγS functional assay, membranes from C6 cells expressing the rat H3R; settings: GTPγS agonist potency
Structures can show the parent of a compound that is named as a salt.
Value Kind: pEC50
Scale: pEC50 equals -log10([C]), with [C] in mol/L.

Examples with their reported pEC50 follow.
Molecule	pEC50
Cl.Cl.Nc1nccc(N[C@@H]2CCNC2)n1 [Example 18, dihydrochloride]	5.79
Nc1nccc(NC2CCN(Cc3ccccc3)CC2)n1 [Example 12, 2,2,2-trifluoroacetate]	6.49
CC(C)(C)OC(=O)N1CCC(CNc2ccnc(N)n2)CC1	5.13
CN(C)CCNc1ccnc(N)n1 [Example 2, 2,2,2-trifluoroacetate]	6.47

Quick check: pEC50 of NCCCNc1ccnc(N)n1 [Example 6, dihydrochloride] ? 6.51

----------
target: rat H3R (Rattus norvegicus (Rat)); assay: GTPγS functional assay, membranes from C6 cells expressing the rat H3R; conditions: GTPγS agonist potency
pEC50: −log10 of the molar value. Structures can show the parent of a compound that is named as a salt.
Give Yes when the value for pEC50 is at least 6. Give No when it is less.

A selection of reference data follows.
Compound	Assigned Category
Nc1nccc(N2CCCN(Cc3ccccc3)CCC2)n1 [Example 21]	Yes
CN1CCN(c2ccnc(N)n2)CC1 [Example 13]	Yes
CC(C)(C)OC(=O)N1CC[C@@H](Nc2ccnc(N)n2)C1 [Example 17]	No

Now look at this one.
Evaluate Nc1nccc(N2CCC3(CC2)CNC3)n1 [Example 23, trihydrochloride] : pEC50 at minimum 6? Yes

----------
biological target: rat H3R (Rattus norvegicus (Rat)); test: GTPγS functional assay, membranes from C6 cells expressing the rat H3R; format: biochemical; conditions: 5 min; [35S]GTPγS bound as percentage of basal; read-out: Rat Maximum (%)
Structures can show the parent of a compound that is named as a salt.
Value Kind: Emax (%)
A number alone suffices; assume %.

// solved cases for Emax follow
Compound	Units Text	Quantitative Result
Nc1nccc(N2C[C@H]3CN(Cc4ccccc4)C[C@H]3C2)n1	%	116
NCCCNc1ccnc(N)n1 [Example 6, dihydrochloride]	%	168
Cl.Cl.Nc1nccc(N[C@@H]2CCNC2)n1 [Example 18, dihydrochloride]	%	162
CC(C)(C)OC(=O)N1CCC(CNc2ccnc(N)n2)CC1	%	138

Consider the compound Nc1nccc(NC2CNC2)n1 [Example 22, trihydrochloride] and give its measured Emax. 156

Bench note: what Emax did Nc1nccc(N2CCNCC2)n1 [Example 25, dihydrochloride] show? 141

Find the recorded Emax belonging to CC(C)(C)OC(=O)N1CC[C@@H](Nc2ccnc(N)n2)C1 and report it. 130

Give the measured Emax of Nc1nccc(NC2CCN(Cc3ccccc3)CC2)n1 [Example 12, 2,2,2-trifluoroacetate] . 136

Please report the recorded Emax for C[C@@H](N)Cc1c[nH]cn1 [R-α-methyl-histamine (RAMH), R-α-methyl-histamine, reference compound] . 224

----------
biological target: UniProt:Q9Y5N1; assay: GTPγS functional assay, membranes from HEK cells expressing the human H3R; assay type: biochemical; conditions: 5 min; [35S]GTPγS bound as percentage of basal; read-out: Human Maximum (%)
Where a name gives a salt, the structure may show the parent alone.
Value Kind: Emax (%)
Note: unit % is implicit; provide only the numeric part.

Consider the following illustrative entries.
Compound	Target	Quantitative Result
Nc1nccc(NC2CNC2)n1 [Example 22, trihydrochloride]	UniProt:Q9Y5N1	216
C[C@@H](N)Cc1c[nH]cn1 [R-α-methyl-histamine (RAMH), R-α-methyl-histamine, reference compound]	UniProt:Q9Y5N1	240

Field request: Emax | item: CN(C)CCNc1ccnc(N)n1 [Example 2, 2,2,2-trifluoroacetate] 160

----------
molecular target: human histamine H3 receptor (Homo sapiens (Human), UniProt Q9Y5N1); assay: FLIPR functional assay (Ca2+, HEK-293 cells coexpressing Gαqi5), human H3 receptor; type: cell-based; conditions: HEK293; FLIPR; percentage of the response to 1 μM RAMH; read-out: Human Maximum (%)
Sequence (Q9Y5N1 whole entry): as the sequence (Q9Y5N1 whole entry) above
Where a name gives a salt, the structure may show the parent alone.
Value Kind: Emax (%)
Kindly provide the numeric value in % only, without the unit symbol.

Compound	Units Text	Emax
CN(C)CCNc1ccnc(N)n1 [Example 2, 2,2,2-trifluoroacetate]	%	77.7

State its Emax on human histamine H3 receptor (Homo sapiens (Human), UniProt Q9Y5N1): Cl.Cl.Nc1nccc(N2CCC(N)CC2)n1 [Example 20, dihydrochloride] 41

Give recorded Emax with human histamine H3 receptor (Homo sapiens (Human), UniProt Q9Y5N1) for the following compound: CC(C)(C)OC(=O)N1CCC(CNc2ccnc(N)n2)CC1 [Example 15] 39

Which measured Emax belongs to Nc1nccc(N[C@H]2CC[C@H](N)CC2)n1 [Example 16] , tested on human histamine H3 receptor (Homo sapiens (Human), UniProt Q9Y5N1)? 34.2

Lab note: need Emax with human histamine H3 receptor (Homo sapiens (Human), UniProt Q9Y5N1) for entry CC(C)(C)OC(=O)N1CCN(c2ccnc(N)n2)CC1 [Example 14] , please look it up. 67.6

Item NCCCNc1ccnc(N)n1 [Example 6, dihydrochloride] with human histamine H3 receptor (Homo sapiens (Human), UniProt Q9Y5N1) - Emax? 93

What value of Emax on human histamine H3 receptor (Homo sapiens (Human), UniProt Q9Y5N1) does Nc1nccc(N2C[C@H]3CN(Cc4ccccc4)C[C@H]3C2)n1 [Example 19] have? 50.2
